Below, each of the molecules is paired with its reported PKR % activation value.
# test target: Human pyruvate kinase R (PKR) (Homo sapiens, UniProt P30613)
# Construct: Human pyruvate kinase R (PKR), residues 14-574; 6x-His (N, cleaved yes); 8x-Arg (N, cleaved yes); SUMO (N, cleaved yes); host or cells: E. coli
# Sequence (P30613 14-574): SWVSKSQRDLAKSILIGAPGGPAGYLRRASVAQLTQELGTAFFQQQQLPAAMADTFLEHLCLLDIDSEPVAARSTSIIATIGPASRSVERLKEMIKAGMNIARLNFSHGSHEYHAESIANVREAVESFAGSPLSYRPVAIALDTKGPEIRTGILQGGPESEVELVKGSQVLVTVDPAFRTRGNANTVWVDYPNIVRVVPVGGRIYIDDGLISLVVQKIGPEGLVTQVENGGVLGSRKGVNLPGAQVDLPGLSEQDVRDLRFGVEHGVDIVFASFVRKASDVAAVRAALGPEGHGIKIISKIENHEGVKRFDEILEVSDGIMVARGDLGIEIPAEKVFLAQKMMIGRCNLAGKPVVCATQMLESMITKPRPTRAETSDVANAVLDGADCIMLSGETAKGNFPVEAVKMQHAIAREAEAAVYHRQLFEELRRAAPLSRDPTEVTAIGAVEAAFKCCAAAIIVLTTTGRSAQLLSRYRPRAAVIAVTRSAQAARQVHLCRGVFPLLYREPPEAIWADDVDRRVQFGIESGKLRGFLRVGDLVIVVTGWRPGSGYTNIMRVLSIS
# experimental details: Biochemical assay for activation of pyruvate kinase R (Kinase-Glo luminescence, ATP generation)
# condition summary: maximal activation level relative to the activation level achieved by AG-348 @ 10 μM
The reply should be a number in %, with the unit left off.

O=C([C@H](O)c1ncccc1F)N1Cc2cn(S(=O)(=O)c3ccc4ncsc4c3)nc2C1 (single isomer, unassigned) [Compound 74] : 100

Recorded PKR % activation of C[C@@H](O)[C@H](C(=O)N1Cc2cn(S(=O)(=O)c3ccc(OC(F)F)cc3)nc2C1)c1ccccc1 [Compound 10] , please.
165

Quick one: PKR % activation of C[C@@H](O)[C@@H](C(=O)N1Cc2cn(S(=O)(=O)c3ccc(OC(F)F)cc3)nc2C1)c1ccccc1Cl (single isomer, unassigned) [Compound 66] ?
142

Item under review: C[C@@H](O)[C@H](C(=O)N1Cc2cn(S(=O)(=O)c3ccc4ncsc4c3)nc2C1)c1ccccc1 (single isomer, unassigned) [Compound 3] . Reported PKR % activation?
104

Param item = C[C@@H](O)[C@@H](C(=O)N1Cc2cn(S(=O)(=O)c3cnc4c(c3)OCCO4)nc2C1)c1ccccc1Cl (single isomer, unassigned) [Compound 70] ; retrieve measured PKR % activation.
80

Return reported PKR % activation; argument: C[C@@H](O)[C@H](C(=O)N1Cc2cn(S(=O)(=O)c3ccc4ncsc4c3)nc2C1)c1ccccc1 [Compound 6]
150

Param item = C[C@@](CO)(C(=O)N1Cc2cn(S(=O)(=O)c3ccc4ncsc4c3)nc2C1)c1ccccn1 (single isomer, unassigned) [Compound 44] ; retrieve measured PKR % activation.
86

Suppose we examine the molecule O=C1CN([C@@H](C(=O)N2Cc3cn(S(=O)(=O)c4ccc(OC(F)F)cc4)nc3C2)c2ccccc2)C1 (single isomer, unassigned) [Compound 93] ; what PKR % activation value has been reported?
84

Recorded PKR % activation for Cc1ncccc1[C@@H](N)C(=O)N1Cc2cn(S(=O)(=O)c3ccc4ncsc4c3)nc2C1 (single isomer, unassigned) [Compound 55] , please?
0

Suppose we examine the molecule O=C1CN([C@@H](C(=O)N2Cc3cn(S(=O)(=O)c4ccc(OC(F)F)cc4)nc3C2)c2ccccc2)C1 (single isomer, unassigned) [Compound 92] ; what PKR % activation value has been reported?
120

What value of measured PKR % activation is listed for O=C([C@@H](CO)c1ccccc1)N1Cc2cn(S(=O)(=O)c3ccc(OC(F)F)cc3)nc2C1 (single isomer, unassigned) [Compound 8] ?
152

Would you kindly share the measured PKR % activation for COc1ccc(S(=O)(=O)n2cc3c(n2)CN(C(=O)[C@H](O)c2ncccc2F)C3)cc1 (single isomer, unassigned) [Compound 87] ?
156
